From: ChEMBL document CHEMBL1201862

Test system: MDA-MB-231
Experiment: NCI tumour cell line growth inhibition, 48 h
Active and inactive are the calls of the source. No stated cut-off is given here; in the data, active = GI50 up to about 1.1 µM and inactive = higher.
// allowed return values: yes (1) (active), no (0) (inactive)

{"columns": ["MOLECULE", "ASSIGNED CATEGORY"],
 "data": [
  ["O=C(O)C/C=C/CC(=O)O", "no (0)"],
  ["O=[N+]([O-])c1ccc(S(=O)(=O)N=Ic2ccccc2)cc1", "no (0)"],
  ["CC(SC(=S)N1CCCCC1)C(=O)Nc1nnc(-c2ccc(Cl)cc2)o1 (configuration not stated)", "no (0)"],
  ["CC(=O)O[C@H]1C#C/C=C\\C#CC[C@@H]2C(=O)N(C(=O)OC(C)(C)C)[C@@H]12", "no (0)"],
  ["O=C(O)/C=N\\N=c1[nH]c2ccccc2[nH]1", "no (0)"]
]}

Qu. Give the logged outcome of this assay for the following molecule: "O=c1c2cc([N+](=O)[O-])ccc2[nH]n1Cc1ccccn1"
Ans. no (0)

====

Test system: A498
Assay: NCI tumour cell line growth inhibition, 48 h
Activity calls are given as the source filed them. No stated cut-off is given here; in the data, active = GI50 up to about 1.1 µM and inactive = higher.
// allowed return values: active, inactive

Look over these answered cases.
{"columns": ["MOLECULE", "EXPERIMENTAL TARGET", "ASSIGNED CATEGORY"],
 "data": [
  ["CCOC(=O)Cc1c(Cc2[nH]c(C(=O)OCc3ccccc3)c(CC(=O)OCC)c2CC(=O)OCC)[nH]c(C(=O)OCc2ccccc2)c1CC(=O)OCC", "A498", "inactive"],
  ["COc1ccc2/c(=C/c3ccc(N(C)C)cc3)c3cc(-c4ccccc4)[n+](C)n3c2c1", "A498", "active"],
  ["COC1OC(CBr)C(OC(=O)c2ccccc2)C(OS(=O)(=O)c2ccc(C)cc2)C1Br (configuration not stated)", "A498", "inactive"],
  ["O=C1CCCC2=C1CC1=C(CCCC1=O)N2c1ccc([N+](=O)[O-])cc1", "A498", "inactive"],
  ["Nc1nc2c3nc(Nc4ccccc4)sc3nc(=O)n2c2sc(Nc3ccccc3)nc12", "A498", "inactive"]
]}

Qu. Give the logged outcome of this assay for the following molecule: "O=[N+]([O-])c1nccn1CCCNc1c2ccccc2[n+]([O-])c2ccccc12"
Ans. inactive

====

Test system: SR
Assay: NCI tumour cell line growth inhibition, 48 h
Active and inactive are the calls of the source. No stated cut-off is given here; in the data, active = GI50 up to about 1.1 µM and inactive = higher.
// allowed return values: true (active), false (inactive)

Look over these answered cases.
{"columns": ["COMPOUND", "EXPERIMENTAL TARGET", "ASSIGNED CATEGORY"],
 "data": [
  ["COc1ccc(N2C(=O)C3c4[nH]c5ccc(C)cc5c4C4CCC(C(C)(C)C)CC4C3C2=O)cc1 (stereo not drawn)", "SR", "false"],
  ["Oc1cc(-c2ccccc2Cl)nc2cc3c(cc12)OCO3", "SR", "true"]
]}

From here, focus on the item given below.
Qu. Give the logged outcome of this assay for the following compound: CCOC(=O)C1=C(C)N2CCOC2(C)C(C(=O)OC)C1c1cccc(Cl)c1 (stereo not drawn)
Ans. false

====

System: SF-295
Test: NCI tumour cell line growth inhibition, 48 h
The source made the active and inactive calls. No stated cut-off is given here; in the data, active = GI50 up to about 1.1 µM and inactive = higher.
// allowed return values: active, inactive

Qu. Give the logged outcome of this assay for the following compound: COc1ccc(N2C(=O)C3c4[nH]c5ccc(C)cc5c4C4CCC(C(C)(C)C)CC4C3C2=O)cc1 (stereo not given)
Ans. inactive

Qu. Give the logged outcome of this assay for the following compound: "COc1c(OC)c(OC)c2c(c1OC)c(=O)c1ccccc1n2C"
Ans. inactive

====

Test system: MOLT-4
Experiment: NCI tumour cell line growth inhibition, 48 h
Active and inactive are the calls of the source. Cut-off read from the data, not from the text of the source: active = GI50 up to about 1.1 µM and inactive = higher.
# GI50 per entry

Below, 5 compounds whose answers are already recorded.
{"columns": ["COMPOUND", "EXPERIMENTAL TARGET", "METRIC NAME", "ASSAY VALUE"],
 "data": [
  ["CCc1nc(N)c2nc(-c3cccs3)oc2n1", "MOLT-4", "GI50", "> 100 µM (inactive)"],
  ["CC(C)C[C@H](NC(=O)[C@H](Cc1cccc2ccccc12)NS(=O)(=O)c1cccc2cccnc12)B(O)O", "MOLT-4", "GI50", "< 0.01 µM (active)"],
  ["CCN(CC)CCNc1nc2ccc([N+](=O)[O-])cc2[n+]([O-])n1", "MOLT-4", "GI50", "18.9 µM (inactive)"],
  ["Cc1cccc(C(C)(C)C)c1NC(=O)CCl", "MOLT-4", "GI50", "> 100 µM (inactive)"],
  ["NC(=S)N/N=C(\\Cc1nc2ccc(Cl)cc2nc1O)C(=O)Nc1ccc(Cl)cc1", "MOLT-4", "GI50", "> 100 µM (inactive)"]
]}

Note to self: GI50 recorded for CC12CCC(=O)[C@@]1(C)CCCC2=O (stereo partly specified) was > 100 µM (inactive)

Note to self: GI50 recorded for "C[N+](C)([O-])C12CC3CC(CC(C3)C1)C2" was 29.3 µM (inactive)

Note to self: GI50 recorded for "Fc1ccc(OCc2nc3cc(C(F)(F)F)ccc3nc2-c2ccccc2)cc1" was 13.2 µM (inactive)

Note to self: GI50 recorded for "COc1c(O)c(OC)c2oc(-c3ccc(O)c(O)c3)c(OC)c(=O)c2c1O" was 28.4 µM (inactive)

Note to self: GI50 recorded for "Nc1nnc2oc3ccc4ccccc4c3cc1-2" was 27.7 µM (inactive)

Note to self: GI50 recorded for N#CC1=C(N)N(/N=C/c2ccco2)C(c2ccco2)C1(C#N)C#N (stereo unspecified) was 11.9 µM (inactive)

====

Test system: ACHN
Experiment: NCI tumour cell line growth inhibition, 48 h
Calls of active or inactive are those of the source. Rule as the data show it: active = GI50 up to about 1.1 µM and inactive = higher.
// allowed return values: active, inactive

Look over these answered cases.
{"columns": ["MOLECULE", "ASSIGNED CATEGORY"],
 "data": [
  ["O=C(O)CN1CCN2CCCCCN(CC1)CCN(CC(=O)O)CC2", "inactive"],
  ["N/C(=N\\O)N/N=C/c1cccc(F)c1", "inactive"],
  ["COc1ccc2cc(CNCCOCCOCCNCc3ccc4cc(OC)ccc4c3)ccc2c1", "inactive"],
  ["Cc1ccc(-c2cc(-c3ccccc3)c(C#N)c(=O)[nH]2)cc1", "inactive"],
  ["N#Cc1cnn2cc[nH]c12", "inactive"]
]}

Qu. Give the logged outcome of this assay for the following molecule: "N#CCc1c(-c2ccccc2)n(S(=O)(=O)c2ccccc2)c2ccccc12"
Ans. inactive

Qu. Give the logged outcome of this assay for the following molecule: "CNC1=Nc2ccccc2C(=S)N2CSC[C@@H]12"
Ans. inactive

Qu. Give the logged outcome of this assay for the following molecule: O=C1CC2CC3OC3[C@H]3c4cc5c(cc4C(=O)N1C23)OCO5 (stereo not given in full)
Ans. inactive

====

System: EKVX
Assay: NCI tumour cell line growth inhibition, 48 h
Calls of active or inactive are those of the source. No stated cut-off is given here; in the data, active = GI50 up to about 1.1 µM and inactive = higher.
METRIC NAME: GI50

{"columns": ["COMPOUND", "METRIC NAME", "ASSAY VALUE"],
 "data": [
  ["O=C1CCNC(=O)NC1", "GI50", "> 100 µM (inactive)"]
]}

Log: EKVX, compound "O=c1c2ccccc2c(=O)n2n1CC=CC2" , GI50 = > 100 µM (inactive)

Log: EKVX, compound CC1(C)C2CCC3=C(CCC4(C)C5C[C@](C)(C(=O)O)CC[C@]5(C)CC[C@]34C)[C@@]2(C)CC[C@@H]1O (stereo not given in full) , GI50 = 20.4 µM (inactive)

Log: EKVX, compound COc1ccc(N2C(=O)C3c4[nH]c5ccc(C)cc5c4C4CCC(C)CC4C3C2=O)cc1 (stereo not given) , GI50 = > 100 µM (inactive)

Log: EKVX, compound COC1C(O)=C2C(=O)OC(C)(O)/C=C/C=C\C=C/C=C/C(c3ccccc3)NC(=O)/C=C/C=C/C=C/C=C/C2(C)C1O (stereo not given) , GI50 = 0.0118 µM (active)

Log: EKVX, compound "CS/C(Nc1ccccc1)=C1\C(=O)N(c2ccccc2)N=C1C" , GI50 = > 100 µM (inactive)

Log: EKVX, compound N#CC(NNC(=O)c1ccccc1O)c1c(O)ccc2ccccc12 (stereo not given) , GI50 = 5.66 µM (inactive)

Log: EKVX, compound "COc1cc(/C=C/c2cccnc2)cc(OC)c1OC" , GI50 = 66.1 µM (inactive)

Log: EKVX, compound "C1CSCCCSCCSCCCSC1" , GI50 = > 100 µM (inactive)

Log: EKVX, compound c1ccc(SCCP(CCP(c2ccccc2)c2ccccc2)c2ccccc2)cc1 (stereo not given) , GI50 = 9.02 µM (inactive)

====

Test system: RXF 631
Assay: NCI tumour cell line growth inhibition, 48 h
Calls of active or inactive are those of the source. Rule as the data show it: active = GI50 up to about 1.1 µM and inactive = higher.
// allowed return values: YES = active, NO = inactive

{"columns": ["MOLECULE", "ASSIGNED CATEGORY"],
 "data": [
  ["Cc1ccc(-c2cc(-c3ccccc3)c(C#N)c(=O)[nH]2)cc1", "NO"],
  ["Nc1nnc(O)c2c1c(I)cn2C1OC(CO)C(O)C1O (stereo unspecified)", "YES"],
  ["Cc1ccc(SSCCCCS(=O)O)cc1", "NO"],
  ["C/C(=N\\NC(=S)N1CCN(c2ccccn2)CC1)c1nccs1", "YES"],
  ["NNC(=O)/C(=C/c1cccc([N+](=O)[O-])c1)NC(=O)c1ccccc1", "NO"]
]}

Qu. Give the logged outcome of this assay for the following molecule: COC1CCC2C(=O)CCCC2O1 (stereo unspecified)
Ans. NO
